# measurement-protocol: Cytotoxicity against human THP1 cells assessed as cell viability at 4.68 ug/ml after 48 hrs by MTT assay relative to control
# Format: cell-based
# protocol-conditions: THP-1 cells, read-out: Activity
measure: viability at 48 h, 4.68 ug/ml
Note: a bare number is incomplete; add the unit.

O=c1cc(-c2ccccc2)c2ccc(OCc3cn([C@@H]4O[C@H](CO)[C@@H](O)[C@H]4O)nn3)cc2o1 = 95%

Value sought for every listed compound: viability at 48 h, 4.68 ug/ml.
1. Cc1cc(=O)oc2cc(OCc3cn([C@@H]4O[C@H](CO)[C@@H](O)[C@H]4O)nn3)ccc12
2. NNC(=O)c1ccncc1
3. Cc1cc(=O)oc2cc(-c3cn([C@@H]4O[C@H](CO)[C@@H](O)[C@H]4O)nn3)ccc12
4. O=C(OC[C@H]1O[C@@H](n2cc(COc3ccc4c(-c5ccccc5)cc(=O)oc4c3)nn2)[C@H](OC(=O)c2ccccc2)[C@@H]1OC(=O)c1ccccc1)c1ccccc1
5. O=c1ccc2ccc(OCc3cn([C@@H]4O[C@H](CO)[C@@H](O)[C@H]4O)nn3)cc2o1

["95%", "84%", "96%", "95%", "89%"]
